target: Progesterone receptor (Homo sapiens, UniProt P06401); test: Competitive binding affinity to progesterone receptor (unknown origin) expressed in baculovirus-infected cell system after 1 hr by fluorescence polarization assay in presence of tetramethylrhodamine-labeled RU-486
Sequence (P06401 whole entry): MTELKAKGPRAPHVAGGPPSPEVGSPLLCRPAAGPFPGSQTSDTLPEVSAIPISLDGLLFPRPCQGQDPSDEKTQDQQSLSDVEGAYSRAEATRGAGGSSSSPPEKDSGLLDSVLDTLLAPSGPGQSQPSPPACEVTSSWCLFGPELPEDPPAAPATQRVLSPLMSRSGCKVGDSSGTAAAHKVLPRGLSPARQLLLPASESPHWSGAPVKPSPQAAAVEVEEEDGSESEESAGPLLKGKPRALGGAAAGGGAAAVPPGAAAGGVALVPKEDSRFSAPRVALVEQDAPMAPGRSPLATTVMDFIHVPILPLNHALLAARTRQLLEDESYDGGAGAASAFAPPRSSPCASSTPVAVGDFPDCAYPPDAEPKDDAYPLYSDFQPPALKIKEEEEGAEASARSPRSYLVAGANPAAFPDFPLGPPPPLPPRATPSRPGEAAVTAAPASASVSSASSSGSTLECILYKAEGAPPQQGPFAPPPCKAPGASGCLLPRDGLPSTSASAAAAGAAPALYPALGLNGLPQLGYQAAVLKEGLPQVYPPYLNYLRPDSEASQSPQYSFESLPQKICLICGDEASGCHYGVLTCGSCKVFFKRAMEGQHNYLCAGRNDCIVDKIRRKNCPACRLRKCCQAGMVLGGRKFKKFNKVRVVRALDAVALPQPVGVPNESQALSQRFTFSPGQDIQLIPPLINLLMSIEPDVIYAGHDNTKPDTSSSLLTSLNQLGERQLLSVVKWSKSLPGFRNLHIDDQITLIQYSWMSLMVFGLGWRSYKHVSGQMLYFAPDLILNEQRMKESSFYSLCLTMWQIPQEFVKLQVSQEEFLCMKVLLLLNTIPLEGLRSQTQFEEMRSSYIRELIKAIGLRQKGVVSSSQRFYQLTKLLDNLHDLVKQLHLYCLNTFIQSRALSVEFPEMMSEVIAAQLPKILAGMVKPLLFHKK
pIC50: −log10 of the molar value.
readout name: pIC50

A: COc1ccc(F)cc1C(C)(C)CC(O)(Cc1cc2cncnc2[nH]1)C(F)(F)F (racemic)
B: Cc1ccc(F)cc1C(C)(C)CC(O)(Cc1cc2cnncc2[nH]1)C(F)(F)F (racemic)
Which has the higher pIC50, A or B ? Which one? Tell me its label.
B

====

target: Glucocorticoid receptor (Homo sapiens); assay: Agonist activity at glucocorticoid receptor in human HeLa cells transfected with luciferase gene linked to MMTV promoter assessed as induction of luciferase transactivation activity at 2 uM after 6 hrs by luminescence assay; format: cell-based
readout name: Emax (%)

Here is how some compounds turned out for Emax.
- compound: "Cc1ccc(F)cc1C(C)(C)C[C@@](O)(Cc1cc2nnccc2[nH]1)C(F)(F)F"
  endpoint unit: "%"
  Emax: 0
- compound: "Cc1ccc(F)cc1C(C)(C)CC(O)(Cc1cc2nc(-c3ccccc3)ncc2[nH]1)C(F)(F)F (racemic)"
  endpoint unit: "%"
  Emax: 36
- compound: "COc1ccc(F)cc1C(C)(C)CC(O)(Cc1cc2ncncc2[nH]1)C(F)(F)F (racemic)"
  endpoint unit: "%"
  Emax: 5
- compound: "Cc1ccc(F)cc1C(C)(C)CC(O)(Cc1cc2nc(-c3cccnc3)ncc2[nH]1)C(F)(F)F (racemic)"
  endpoint unit: "%"
  Emax: 32

P: Cc1ccc(F)cc1C(C)(C)CC(O)(Cc1cc2cc(-c3ccccc3)nnc2[nH]1)C(F)(F)F (racemic)
Q: CC(C)(CC(O)(Cc1cc2ncncc2[nH]1)C(F)(F)F)c1ccc(F)cc1O (racemic)
R: Cc1ccc(F)cc1C(C)(C)CC(O)(Cc1cc2ncncc2[nH]1)C(F)(F)F (racemic)
Hello, I need these entries ordered by Emax, highest reading first. Thanks! // list labels; follow requested order
P, Q, R
(P: 75%, Q: 22%, R: 0%)

====

target: Glucocorticoid receptor (Homo sapiens, UniProt P04150); experiment: Transrepression activity at glucocorticoid receptor in human fibroblasts assessed as inhibition of IL-1-induced IL-6 production after 18 to 24 hrs
pIC50: −log10 of the molar value.
readout name: pIC50

Here is how some compounds turned out for pIC50.
- compound: "Cc1ccc(F)cc1C(C)(C)CC(O)(Cc1cc2nc(-c3ccccc3)ncc2[nH]1)C(F)(F)F (racemic)"
  measured target: "Glucocorticoid receptor (Homo sapiens, UniProt P04150)"
  pIC50: 8.10
- compound: "Cc1ccc(F)cc1C(C)(C)C[C@@](O)(Cc1cc2nnccc2[nH]1)C(F)(F)F"
  measured target: "Glucocorticoid receptor (Homo sapiens, UniProt P04150)"
  pIC50: 8.05

P: Cc1ccc(F)cc1C(C)(C)CC(O)(Cc1cc2cc(-c3ccccc3)nnc2[nH]1)C(F)(F)F (racemic)
Q: Cc1ccc(F)cc1C(C)(C)CC(O)(Cc1cc2nc(C(C)C)ncc2[nH]1)C(F)(F)F (racemic)
R: Cc1ccc(F)cc1C(C)(C)CC(O)(Cc1cc2nc(-c3ccccc3)cnc2[nH]1)C(F)(F)F (stereo not given)
Arrange these 3 compounds in increasing order of pIC50. // list labels; follow requested order
Q, R, P

====

target: Mineralocorticoid receptor (Homo sapiens); assay: Competitive binding affinity to mineralocorticoid receptor (unknown origin) expressed in baculovirus-infected cell system after 1 hr by fluorescence polarization assay in presence of tetramethylrhodamine-labeled dexamethasone
Sequence (P08235 whole entry): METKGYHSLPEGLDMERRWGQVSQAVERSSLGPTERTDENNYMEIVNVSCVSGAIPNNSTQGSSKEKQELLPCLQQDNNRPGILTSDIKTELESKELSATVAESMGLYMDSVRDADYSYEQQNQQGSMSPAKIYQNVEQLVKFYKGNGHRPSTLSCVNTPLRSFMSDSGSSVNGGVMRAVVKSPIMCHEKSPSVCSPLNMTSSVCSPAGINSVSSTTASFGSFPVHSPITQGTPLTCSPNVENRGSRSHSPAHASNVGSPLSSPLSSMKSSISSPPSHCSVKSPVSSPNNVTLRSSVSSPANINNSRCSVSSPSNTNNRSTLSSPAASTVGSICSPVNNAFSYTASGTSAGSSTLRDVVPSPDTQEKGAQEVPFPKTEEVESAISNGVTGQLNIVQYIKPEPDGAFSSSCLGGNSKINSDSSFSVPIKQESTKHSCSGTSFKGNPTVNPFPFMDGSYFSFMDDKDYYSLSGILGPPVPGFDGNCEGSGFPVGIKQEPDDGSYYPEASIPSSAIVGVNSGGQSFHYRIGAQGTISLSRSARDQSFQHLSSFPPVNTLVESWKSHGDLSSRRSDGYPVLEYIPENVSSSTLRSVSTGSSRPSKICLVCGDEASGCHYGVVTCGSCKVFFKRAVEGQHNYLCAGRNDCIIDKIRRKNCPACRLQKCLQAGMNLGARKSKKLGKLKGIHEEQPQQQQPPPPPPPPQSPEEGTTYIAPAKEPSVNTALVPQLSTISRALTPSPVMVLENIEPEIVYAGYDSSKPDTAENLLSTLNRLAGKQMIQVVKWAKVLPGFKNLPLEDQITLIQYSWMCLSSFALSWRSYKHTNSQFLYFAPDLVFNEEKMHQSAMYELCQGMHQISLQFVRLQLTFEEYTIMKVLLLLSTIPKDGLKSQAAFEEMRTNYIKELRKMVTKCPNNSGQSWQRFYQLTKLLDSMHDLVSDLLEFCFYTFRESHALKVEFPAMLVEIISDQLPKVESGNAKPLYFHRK
pIC50: −log10 of the molar value.
readout name: pIC50

- compound: "Cc1ccc(F)cc1C(C)(C)C[C@@](O)(Cc1cc2nnccc2[nH]1)C(F)(F)F"
  readout name: "pIC50"
  readout number: 6.59
- compound: "CC(C)(CC(O)(Cc1cc2ncncc2[nH]1)C(F)(F)F)c1cc(F)cc2c1OCC2 (racemic)"
  readout name: "pIC50"
  readout number: 5.89

a: Cc1ccc(F)cc1C(C)(C)CC(O)(Cc1cc2cnncc2[nH]1)C(F)(F)F (racemic)
b: CC(C)(CC(O)(Cc1cc2ncncc2[nH]1)C(F)(F)F)c1cc(Cl)cc2c1OCC2 (racemic)
// compare measured pIC50 between a and b ; output the lower one Which one? Tell me its label.
b

====

target: UniProtKB P08235; assay: Competitive binding affinity to mineralocorticoid receptor (unknown origin) expressed in baculovirus-infected cell system after 1 hr by fluorescence polarization assay in presence of tetramethylrhodamine-labeled dexamethasone
readout name: IC50 (µM)

Here is how some compounds turned out for IC50.
- compound: "COc1ccc(F)cc1C(C)(C)CC(O)(Cc1cc2cncnc2[nH]1)C(F)(F)F (racemic)"
  measured target: "UniProtKB P08235"
  IC50 / µM: 0.16
- compound: "CC(C)(CC(O)(Cc1cc2ncncc2[nH]1)C(F)(F)F)c1ccc(F)cc1O (racemic)"
  measured target: "UniProtKB P08235"
  IC50 / µM: 1.2
- compound: "Cc1ccccc1C(C)(C)CC(O)(Cc1cc2ncncc2[nH]1)C(F)(F)F (racemic)"
  measured target: "UniProtKB P08235"
  IC50 / µM: 1.1
- compound: "Cc1ccc(F)cc1C(C)(C)CC(O)(Cc1cc2nc(N3CCOCC3)ncc2[nH]1)C(F)(F)F (racemic)"
  measured target: "UniProtKB P08235"
  IC50 / µM: 0.17
- compound: "Cc1ccc(F)cc1C(C)(C)CC(O)(Cc1cc2ncncc2[nH]1)C(F)(F)F (racemic)"
  measured target: "UniProtKB P08235"
  IC50 / µM: 0.855
- compound: "Cc1ccc(F)cc1C(C)(C)C[C@@](O)(Cc1cc2ncncc2[nH]1)C(F)(F)F"
  measured target: "UniProtKB P08235"
  IC50 / µM: 0.475
- compound: "Cc1ccc(F)cc1C(C)(C)CC(O)(Cc1cc2nc(-c3ccccc3)ncc2[nH]1)C(F)(F)F (racemic)"
  measured target: "UniProtKB P08235"
  IC50 / µM: 1.9

1: Cc1ccc(F)cc1C(C)(C)CC(O)(Cc1cc2nnccc2[nH]1)C(F)(F)F (racemic)
2: CC(C)(CC(O)(Cc1cc2ncncc2[nH]1)C(F)(F)F)c1cc(F)ccc1O (racemic)
// compare measured IC50 between 1 and 2 ; output the lower one Which one? Tell me its label.
1

====

test: Half life in rat at 5 mg/kg, iv and 30 mg/kg, po; assay type: ADME, organism-based; conditions: in vivo
readout name: half-life (min)
Give the value in min but do not write min after it.

// recorded half-life for `Cc1ccc(F)cc1C(C)(C)C[C@@](O)(Cc1cc2ncncc2[nH]1)C(F)(F)F` : 36

====

Target: UniProt:P04150
Sequence (P04150 whole entry): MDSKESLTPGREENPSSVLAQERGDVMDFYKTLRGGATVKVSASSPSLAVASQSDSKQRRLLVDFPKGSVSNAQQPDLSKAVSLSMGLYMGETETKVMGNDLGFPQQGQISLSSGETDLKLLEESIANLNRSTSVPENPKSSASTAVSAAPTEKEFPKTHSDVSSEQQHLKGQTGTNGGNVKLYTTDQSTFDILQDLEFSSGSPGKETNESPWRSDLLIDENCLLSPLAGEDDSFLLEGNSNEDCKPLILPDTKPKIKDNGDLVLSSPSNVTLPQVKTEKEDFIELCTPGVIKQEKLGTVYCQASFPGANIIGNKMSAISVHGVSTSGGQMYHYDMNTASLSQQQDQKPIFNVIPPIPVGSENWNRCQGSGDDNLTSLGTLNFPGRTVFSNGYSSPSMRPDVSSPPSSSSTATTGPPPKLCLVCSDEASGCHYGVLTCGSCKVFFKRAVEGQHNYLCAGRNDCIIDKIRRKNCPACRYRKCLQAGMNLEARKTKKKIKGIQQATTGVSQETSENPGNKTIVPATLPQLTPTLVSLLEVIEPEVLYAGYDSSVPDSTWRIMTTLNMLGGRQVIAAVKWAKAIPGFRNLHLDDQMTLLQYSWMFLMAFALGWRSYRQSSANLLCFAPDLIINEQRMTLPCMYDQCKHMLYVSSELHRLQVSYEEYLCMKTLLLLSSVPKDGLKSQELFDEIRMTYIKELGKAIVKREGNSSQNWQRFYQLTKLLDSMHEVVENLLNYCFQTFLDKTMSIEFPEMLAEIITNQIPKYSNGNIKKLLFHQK
Assay: Transrepression activity at glucocorticoid receptor in human fibroblasts assessed as inhibition of IL-1-induced IL-6 production after 18 to 24 hrs
readout name: IC50 (nM)

Here is how some compounds turned out for IC50.
- compound: "Cc1ccc(F)cc1C(C)(C)CC(O)(Cc1cc2cnncc2[nH]1)C(F)(F)F (racemic)"
  endpoint unit: "nM"
  IC50: 5
- compound: "COc1ccc(F)cc1C(C)(C)CC(O)(Cc1cc2ncncc2[nH]1)C(F)(F)F (racemic)"
  endpoint unit: "nM"
  IC50: 21
- compound: "Cc1ccc(F)cc1C(C)(C)CC(O)(Cc1cc2nc(N3CCS(=O)(=O)CC3)ncc2[nH]1)C(F)(F)F (racemic)"
  endpoint unit: "nM"
  IC50: 19
- compound: "Cc1ccc(F)cc1C(C)(C)CC(O)(Cc1cc2nnccc2[nH]1)C(F)(F)F (racemic)"
  endpoint unit: "nM"
  IC50: 16
- compound: "Cc1ccc(F)cc1C(C)(C)CC(O)(Cc1cc2nc(N3CCCC3)ncc2[nH]1)C(F)(F)F (racemic)"
  endpoint unit: "nM"
  IC50: 130
- compound: "CC(C)(CC(O)(Cc1cc2ncncc2[nH]1)C(F)(F)F)c1cc(F)cc2c1OCC2 (racemic)"
  endpoint unit: "nM"
  IC50: 24
- compound: "Cc1ccccc1C(C)(C)CC(O)(Cc1cc2ncncc2[nH]1)C(F)(F)F (racemic)"
  endpoint unit: "nM"
  IC50: 44
- compound: "CC(C)(CC(O)(Cc1cc2ncncc2[nH]1)C(F)(F)F)c1cc(F)ccc1O (racemic)"
  endpoint unit: "nM"
  IC50: 11

I: Cc1ccc(F)cc1C(C)(C)CC(O)(Cc1cc2nc(-c3cccnc3)ncc2[nH]1)C(F)(F)F (racemic)
II: Cc1ccc(F)cc1C(C)(C)CC(O)(Cc1cc2ncncc2[nH]1)C(F)(F)F (racemic)
// compare measured IC50 between I and II ; output the lower one Which one? Tell me its label.
I
(I: 12 nM, II: 19 nM)

1: COc1ccc(F)cc1C(C)(C)CC(O)(Cc1cc2cncnc2[nH]1)C(F)(F)F (racemic)
2: CC(C)(CC(O)(Cc1cc2ncncc2[nH]1)C(F)(F)F)c1ccccc1S(C)(=O)=O (racemic)
// compare measured IC50 between 1 and 2 ; output the lower one Which one? Tell me its label.
1
(1: 10 nM, 2: 21 nM)

1: CC(C)(CC(O)(Cc1cc2ncncc2[nH]1)C(F)(F)F)c1cc(Cl)cc2c1OCC2 (racemic)
2: CC(C)(CC(O)(Cc1cc2ncncc2[nH]1)C(F)(F)F)c1ccc(F)cc1O (racemic)
// compare measured IC50 between 1 and 2 ; output the lower one Which one? Tell me its label.
2
(2: 9 nM, 1: 13 nM)

Cited source for all entries: ChEMBL document CHEMBL3124926
